target: human GLP-1 receptor (human, UniProt P43220 24-463); assay: cell-based or functional assay
Numbered stars: 1 amine (or outer) side, 2 acyl side, 3 side chain; on linkers, the order of the positions; unused ones are H or OH. Square brackets hold non-standard residues; d marks the D form. Side chains are listed from the residue outwards. * marks the point of attachment. C20 diacid = O=C(O)CCCCCCCCCCCCCCCCCCC(=O)*; γGlu = O=C(O)[C@H](CCC(=O)[*:2])N[*:1]; Chem. 27 = not defined here; AEEA = NCCOCCOCC(=O)O; Aib = CC(C)(N)C(=O)O
Think of 200 pM as a floor: if hGLP-1R Potency, 1% HSA, EC50 [pM] stands on it or above, it is rule met; beneath it, rule not met.

1. Compound 179 (reading uncertain) peptide: Y[Aib]EGTFTSDYSILLEEIAAREFIEWLLAGGPSSGAGASHLSTAQTQRLSAELHK(Chem. 27)LATEPRTETGSGSP-NH2 :: rule not met
2. Compound 189 (reading uncertain) peptide: Y[Aib]EGTFTSDYSILLEEIAAREFIEWLLAGGPSSGAGEAPGEAPGASHLSTAQTQRLSAELHK(Chem. 27)LATLPRTETGSGSP-NH2 :: rule not met
3. Compound 183 (reading uncertain) peptide: Y[Aib]EGTFTSDYSK(Chem. 27)LLEEIAAREFIEWLLAGGPSSGAGASELSTAQLGRLSAELHQLATLPRTETGSGSP-NH2 :: rule met
4. Compound 115 (peptide) peptide: Y[Aib]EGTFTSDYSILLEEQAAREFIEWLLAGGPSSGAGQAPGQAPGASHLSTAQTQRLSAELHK([AEEA-AEEA-γGlu-C20 diacid])LATLPRTETGSGSP-NH2 :: rule not met
5. Compound 181 (reading uncertain) peptide: Y[Aib]EGTFTSDYSILLEEIAAREFIEWLLAGGPSSEAGASQLSTAQTQRLSAELHK(Chem. 27)LATLPRTETGSGSP-NH2 :: rule not met
6. Compound 176 (reading uncertain) peptide: Y[Aib]EGTFTSDYSILLEEIAAREFIEWLLAGGPSSGAGASELSTAQTQRLSAELHK(Chem. 27)LATLPRTETGSGSP-NH2 :: rule not met
